Where do these numbers come from? They come from patent US20080008703A1.

- EXPERIMENTAL_SYSTEM: T1, recombinant human tumor necrosis factor-α (Biosource, USA) (human, UniProt P01375 77-233)
- T1 construct: also called hTNF-α; TNF-α
- T1 sequence (P01375 77-233 limits assumed): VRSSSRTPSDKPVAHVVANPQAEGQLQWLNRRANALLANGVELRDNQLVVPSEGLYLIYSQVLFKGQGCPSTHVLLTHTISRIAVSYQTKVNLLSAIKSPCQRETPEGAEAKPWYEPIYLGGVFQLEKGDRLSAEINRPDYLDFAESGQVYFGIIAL
- ASSAY_COMMENT: competitive ELISA (Friguet method), antibody pre-incubated with soluble hTNF-α, plate coated with hTNF-α
Assignment: determine reported Kd for the given binders.
One number for each entry, in nM.

INSERT INTO assay_data (binder, quantitative_result) VALUES
  ('mouse monoclonal antibody TSK114 (antibody, V domains shown, Mouse monoclonal antibody (deposits KCTC 10514BP and KCTC 10515BP); also called Mouse antibody TSK114) VH: QVQLVQSGPELKKPGETVKISCKASGYTFTHYGMNWVKQAPGEGLKWMGWINTNTGEPRYDEEFKGRFAFSLETSASTAYLQINNLRREDTATYFCARYDSRGFDCWGQGTTLTVSS VL: QIVLTQSPAIMSASLGERVTMTCTASSSISYNYFHWYQQRPGSSPKLWIYSSSNLASGVPPRISGSGSGTSYSLTISSMEAEDAATYYCHQYERSPWTFGGGTKLEIKR', 0.14),
  ('humanized antibody YHB1406 (antibody, V domains shown, Human heavy chain constant region comes from vector pHAB-HC and human kappa light chain constant region from pHAB-KC) VH: QVQLVQSGPELKKPGASVKVSCKASGYTFTHYGMNWVRQAPGQGLEWMGWINTNTGEPRYDEEFKGRVTMTRDTSASTAYMELSSLRSEDTAVYYCARYDSRGFDCWGQGTTVTVSS VL: QIVMTQSPSSLSASVGERVTITCTASSSISYNYFHWYQQKPGSAPKLWIYSSSNLASGVPSRFSGSGSGTDFTFTISSLQPEDIATYYCHQYERSPWTFGGGTKVEIKR', 0.22);

Give measured Kd for every item shown.
1. humanized antibody YHB1406-2 (antibody, V domains shown, Human heavy and kappa light constant regions come from pHAB-HC and pHAB-KC) VH: QVQLVQSGPELKKPGASVKVSCKASGYTFTHYGMNWVRQAPGKGLEWMGWINTNTGEPRYDEEFKGRVTMTRDTSASTAYMELSSLRSEDTAVYYCARYDSRGFDCWGQGTTLTVSS VL: DIVMTQSPSSLSASVGERVTITCTASSSISYNYFHWYQQKPGSAPKLWIYSSSNLASGVPSRFSGSGSGTDFTFTISSLQPEDIATYYCHQYERSPWTFGGGTKVEIKR
2. humanized antibody YHB1411-2 (antibody, V domains shown, Human heavy and kappa light constant regions come from pHAB-HC and pHAB-KC; also called YBB1411-2) VH: QVQLVQSGPELKKPGASVKVSCKASGYTFTHYGMNWVRQAPGKGLEWMGWINTNTGEPRYDEEFKGRVTMTRDTSASTAYMELSSLRSEDTAVYYCARYDSRGFDCWGQGTTVTVSS VL: DIVMTQSPSSLSASVGERVTITCTASSSISYNYFHWYQQKPGSAPKLWIYSSSNLASGVPSRFSGSGSGTDFTFTISSLQPEDIATYYCHQYERSPWTFGGGTKVEIKR

Solution:
1. 0.29
2. 0.2
